Reported superoxide response (% of plate) is given for each of the following compounds.
test_protocol: superoxide lowering in aged yeast cells, pilot screen, validation compound set (AID 2706);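 also: yeast exposed to compound for one week at 30 degrees C before staining; 100% = mean of all compound wells on the same plate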
condition_set: S. cerevisiae aging, superoxide DHE fluorescence; at 10 µM, active compounds read low
Report as a plain number; the unit % is understood.

compound | superoxide response (% of plate) / %
CCc1cn([C@H]2C[C@H](O)[C@@H](CO)O2)c(=O)[nH]c1=O | 95.6
O=C(/C=C/c1ccc(Cl)cc1)NCCc1ccccc1 | 106
COc1cc2ccc(=O)oc2c(O)c1OCC=C(C)C | 102
O=C(c1ccccc1F)c1cc2c(cc1[N+](=O)[O-])OCCO2 | 107
COc1cc(Cl)cc2c1Sc1ccccc1/C2=C/CCN(C)C | 104

Now for a further compound.
What value of measured superoxide response (% of plate) is listed for CC(C(=O)O)c1ccc(N2Cc3ccccc3C2=O)cc1 (configuration not stated) ?
112
